# test_description: Tmax in mouse at 10 mg/kg, po
# condition_context: in vivo
experimental_endpoint: Tmax (min)
// units = min; emit number, no label

# Tmax lookup, item COc1ccc(-c2ccccc2)cc1NS(=O)(=O)c1cc(Cl)cc(Cl)c1O
30

----------
molecules and their reported IC50
# subject_of_test: ATP-citrate synthase (Homo sapiens, UniProt P53396)
# Sequence (P53396 whole entry): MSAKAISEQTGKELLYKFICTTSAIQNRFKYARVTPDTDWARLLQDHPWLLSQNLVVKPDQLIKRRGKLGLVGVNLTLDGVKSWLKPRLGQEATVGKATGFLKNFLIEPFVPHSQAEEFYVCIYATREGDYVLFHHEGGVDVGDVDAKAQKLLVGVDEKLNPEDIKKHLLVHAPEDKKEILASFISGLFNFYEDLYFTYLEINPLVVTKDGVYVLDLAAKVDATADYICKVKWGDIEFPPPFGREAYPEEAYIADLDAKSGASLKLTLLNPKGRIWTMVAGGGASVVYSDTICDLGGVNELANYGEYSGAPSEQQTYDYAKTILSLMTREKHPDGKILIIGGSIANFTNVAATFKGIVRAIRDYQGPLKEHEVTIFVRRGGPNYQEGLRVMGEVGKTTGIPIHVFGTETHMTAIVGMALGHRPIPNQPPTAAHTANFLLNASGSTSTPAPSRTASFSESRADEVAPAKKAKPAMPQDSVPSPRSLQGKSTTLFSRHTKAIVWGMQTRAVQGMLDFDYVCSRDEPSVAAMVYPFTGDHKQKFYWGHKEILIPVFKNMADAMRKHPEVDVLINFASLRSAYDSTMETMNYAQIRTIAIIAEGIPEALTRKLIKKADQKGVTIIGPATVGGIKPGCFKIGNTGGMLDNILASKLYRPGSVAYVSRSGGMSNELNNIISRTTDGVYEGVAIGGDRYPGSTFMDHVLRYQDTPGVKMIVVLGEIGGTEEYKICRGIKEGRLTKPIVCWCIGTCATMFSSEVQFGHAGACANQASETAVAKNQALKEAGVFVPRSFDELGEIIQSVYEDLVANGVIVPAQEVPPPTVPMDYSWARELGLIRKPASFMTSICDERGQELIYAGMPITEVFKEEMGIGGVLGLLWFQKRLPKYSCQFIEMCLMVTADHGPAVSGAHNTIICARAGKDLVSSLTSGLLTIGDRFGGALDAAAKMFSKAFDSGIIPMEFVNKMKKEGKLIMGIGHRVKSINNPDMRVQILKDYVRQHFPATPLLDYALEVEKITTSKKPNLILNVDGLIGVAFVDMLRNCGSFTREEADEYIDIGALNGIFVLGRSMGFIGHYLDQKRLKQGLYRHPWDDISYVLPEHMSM
# test_description: Inhibition of human recombinant ATP-citrate lyase
I'd appreciate it if you included the unit after the number.

Below, 2 molecules whose answers are already recorded.
O=C(O)C[C@@](O)(C[C@H](O)CCCCCCc1ccc(Cl)cc1Cl)C(=O)O
2.1 µM
O=S(=O)(Nc1cc(F)cc(F)c1)c1cc(Cl)cc(Cl)c1O
7.6 µM

# IC50 lookup, item CCCCCCc1ccc(NS(=O)(=O)c2cc(Cl)cc(Cl)c2O)cc1
6.9 µM
